Taken from paper PMC6222316.

experiment description: Pharmacokinetic study of 14 compounds in rat plasma after oral administration of XYP (UPLC-MS/MS)
Assay type: in vivo, Sprague–Dawley rats
assay setup: female, Sprague-Dawley, oral XYP 4 g/kg, mean ± SD, n = 6, read-out: MRT0–∞
Protocol: The validated UPLC-MS/MS method was successfully applied to the pharmacokinetic study of 14 compounds in rat plasma after the oral administration of XYP at a dose of 4 g/kg (8-fold the clinical dosage). Quantitative analysis was conducted on a Waters® Micromass® Quattro Premier™ XE triple-quadrupole tandem mass spectrometer (Waters Corp., Milford, MA, USA). […]
Reported MRT inf is given for each of the following compounds.

INSERT INTO measurements (compound, readout_value) VALUES
  ('CCC/C=C1\OC(=O)C2=C1CC[C@H](O)[C@H]2O [Senkyunolide I, senkyunolide I]', '6.37 h');

The compound identified as C=C1CCC[C@]2(C)C[C@@H]3OC(=O)C(C)=C3C[C@@H]12 [Atractylenolide II, atractylenolide II] registered its MRT inf at 4.43 h

The compound identified as "C[C@@H]1O[C@@H](O[C@H]2[C@H](O)[C@@H](O)[C@H](O[C@H]3CC[C@]4(C)[C@H]5C=C[C@]67OC[C@@]8(CCC(C)(C)C[C@H]86)[C@@H](O)C[C@@]7(C)[C@]5(C)CC[C@H]4C3(C)C)O[C@@H]2CO[C@@H]2O[C@H](CO)[C@@H](O)[C@H](O)[C@H]2O)[C@H](O)[C@H](O)[C@H]1O" registered its MRT inf at 7.67 h

The compound identified as "O=c1c(O)c(-c2ccc(O)c(O)c2)oc2cc(O)cc(O)c12" registered its MRT inf at 7.03 h

The compound identified as "O=C1C[C@@H](c2ccc(O[C@@H]3O[C@H](CO)[C@@H](O)[C@H](O)[C@H]3O)cc2)Oc2cc(O)ccc21" registered its MRT inf at 10.2 h

The compound identified as "C[C@H]1O[C@@H](O[C@H]2CC[C@@]3(C)[C@@H](CC[C@]4(C)[C@@H]3C=C[C@]35OC[C@@]6(CCC(C)(C)C[C@H]63)[C@@H](O)C[C@]54C)[C@]2(C)CO)[C@H](O)[C@@H](O[C@@H]2O[C@H](CO)[C@@H](O)[C@H](O)[C@H]2O)[C@H]1O" registered its MRT inf at 8.88 h

The compound identified as C=C1CCC[C@]2(C)C[C@]3(O)OC(=O)C(C)=C3C[C@@H]12 [Atractylenolide III, atractylenolide III] registered its MRT inf at 8.6 h
